These entries and their values trace back to PubChem BioAssay.

- targetOrTestSystem: Neurogenic locus notch homolog protein 3 (Homo sapiens) (UniProt Q9UM47)
- Sequence (Q9UM47 whole entry, looked up): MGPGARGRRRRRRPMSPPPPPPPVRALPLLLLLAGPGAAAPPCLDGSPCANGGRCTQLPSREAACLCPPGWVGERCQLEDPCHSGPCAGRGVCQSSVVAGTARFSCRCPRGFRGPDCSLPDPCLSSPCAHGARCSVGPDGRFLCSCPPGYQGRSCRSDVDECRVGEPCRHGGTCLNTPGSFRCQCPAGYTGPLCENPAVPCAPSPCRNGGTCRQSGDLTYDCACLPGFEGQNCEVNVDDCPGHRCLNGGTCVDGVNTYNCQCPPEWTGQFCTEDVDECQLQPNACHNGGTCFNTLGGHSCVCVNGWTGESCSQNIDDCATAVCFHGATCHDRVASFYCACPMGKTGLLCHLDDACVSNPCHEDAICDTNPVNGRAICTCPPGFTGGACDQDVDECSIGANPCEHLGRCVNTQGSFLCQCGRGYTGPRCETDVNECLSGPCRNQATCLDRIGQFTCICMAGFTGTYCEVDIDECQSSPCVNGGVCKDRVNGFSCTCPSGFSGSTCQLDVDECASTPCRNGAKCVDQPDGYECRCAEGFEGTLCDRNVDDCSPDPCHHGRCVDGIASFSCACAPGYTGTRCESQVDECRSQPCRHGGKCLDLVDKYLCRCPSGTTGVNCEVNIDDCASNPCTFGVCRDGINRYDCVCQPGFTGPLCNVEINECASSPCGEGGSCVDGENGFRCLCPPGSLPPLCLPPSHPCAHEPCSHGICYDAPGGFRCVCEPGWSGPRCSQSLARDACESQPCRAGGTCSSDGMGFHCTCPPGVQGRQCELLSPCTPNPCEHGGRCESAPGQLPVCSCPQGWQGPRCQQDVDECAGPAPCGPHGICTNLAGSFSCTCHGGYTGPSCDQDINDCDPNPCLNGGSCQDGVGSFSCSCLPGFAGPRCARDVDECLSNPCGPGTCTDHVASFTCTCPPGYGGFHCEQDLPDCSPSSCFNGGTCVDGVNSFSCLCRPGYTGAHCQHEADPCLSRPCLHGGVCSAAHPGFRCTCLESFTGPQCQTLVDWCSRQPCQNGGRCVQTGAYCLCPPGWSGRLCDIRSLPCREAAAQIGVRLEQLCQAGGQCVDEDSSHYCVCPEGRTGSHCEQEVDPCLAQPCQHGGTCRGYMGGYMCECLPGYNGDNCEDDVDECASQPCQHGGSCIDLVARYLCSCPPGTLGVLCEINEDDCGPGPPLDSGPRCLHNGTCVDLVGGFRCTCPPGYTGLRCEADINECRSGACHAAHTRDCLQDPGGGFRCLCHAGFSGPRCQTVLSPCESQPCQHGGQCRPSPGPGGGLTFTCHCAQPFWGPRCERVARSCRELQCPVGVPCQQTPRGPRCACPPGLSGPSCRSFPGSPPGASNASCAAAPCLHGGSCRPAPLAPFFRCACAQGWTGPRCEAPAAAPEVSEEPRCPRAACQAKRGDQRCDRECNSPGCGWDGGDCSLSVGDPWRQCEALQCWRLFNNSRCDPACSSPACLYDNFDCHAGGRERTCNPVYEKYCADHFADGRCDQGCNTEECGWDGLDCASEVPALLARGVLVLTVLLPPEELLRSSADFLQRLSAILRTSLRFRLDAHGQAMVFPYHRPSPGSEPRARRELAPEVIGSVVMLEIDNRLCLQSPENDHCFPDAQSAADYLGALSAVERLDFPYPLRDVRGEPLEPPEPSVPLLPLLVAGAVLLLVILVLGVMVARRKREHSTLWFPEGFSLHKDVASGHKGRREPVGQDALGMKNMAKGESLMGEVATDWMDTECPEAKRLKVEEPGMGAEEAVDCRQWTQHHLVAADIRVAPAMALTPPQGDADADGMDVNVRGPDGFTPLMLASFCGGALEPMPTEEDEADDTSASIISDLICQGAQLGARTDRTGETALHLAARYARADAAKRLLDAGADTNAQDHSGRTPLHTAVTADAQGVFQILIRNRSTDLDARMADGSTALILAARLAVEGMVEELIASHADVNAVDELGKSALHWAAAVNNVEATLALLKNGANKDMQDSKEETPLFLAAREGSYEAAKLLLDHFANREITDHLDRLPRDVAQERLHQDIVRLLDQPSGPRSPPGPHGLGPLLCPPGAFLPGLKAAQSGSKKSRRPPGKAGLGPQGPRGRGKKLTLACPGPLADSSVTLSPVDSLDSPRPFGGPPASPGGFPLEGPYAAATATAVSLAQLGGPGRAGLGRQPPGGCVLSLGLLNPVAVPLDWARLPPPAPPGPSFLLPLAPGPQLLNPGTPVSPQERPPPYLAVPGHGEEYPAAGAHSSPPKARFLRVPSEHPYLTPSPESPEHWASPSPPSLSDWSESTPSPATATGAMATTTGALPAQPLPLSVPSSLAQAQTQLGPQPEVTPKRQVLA
- assayRemarks: NOTCH3 binders on small-molecule microarray, primary screen, biochemical, 635/667 nm fluorescence (AID 1096)
- condition: NOTCH3 binding, 635 nm fluorescence, higher = more signal
outcomeMeasure: composite z-score

O[C@@H](Cc1ccccc1)[C@@H](/C=C/C1CC1)N(CC#Cc1ccccc1)Cc1cccc(Cl)c1    -1.08
COCCOC(=O)N1C(=O)[C@@]2(c3cc(C#CC4=CCCCC4)ccc31)[C@H](C(=O)N1CCCCCCC1)[C@H]1C(=O)O[C@H](c3ccccc3)[C@H](c3ccccc3)N1[C@@H]2c1ccc(O)cc1    0.807
CCOC(=O)C1=CC[C@@H](c2ccc(OCc3ccccc3)c(OC)c2)N(S(=O)(=O)c2ccc(C)cc2)[C@H]1c1ccc(SC)cc1    1.12
COC(=O)C(CC#Cc1ccc2c(c1)[C@]1(C(=O)N2)[C@H](C(=O)N2CCN(c3ncccn3)CC2)[C@H]2C(=O)O[C@H](c3ccccc3)[C@H](c3ccccc3)N2[C@@H]1c1ccc(OCCO)cc1)C(=O)OC    1.02
CCCNC(=O)[C@@]1(c2ccc([N+](=O)[O-])cc2)CC(=O)N(C2CCCCC2)[C@@H]1c1ccc(CO)cc1    1.04

Batch request: composite z-score for each of the following compounds.
1. O=C1O[C@H](c2ccccc2)[C@H](c2ccccc2)N2[C@H]1[C@@H](C(=O)N1CCN(c3ncccn3)CC1)[C@]1(C(=O)Nc3ccc(C#CC4(O)CCCCCC4)cc31)[C@H]2c1ccc(OCCO)cc1
2. C=CCOC(=O)[C@H]1[C@@H]2C(=O)O[C@@H](c3ccccc3)[C@@H](c3ccccc3)N2[C@@H](c2ccc(OCCOC(=O)[C@H]3C[C@H]4C(=O)N[C@@H](CCCCNC(C)=O)C(=O)N4[C@H]3c3ccc(O)cc3)cc2)[C@]12C(=O)Nc1ccccc12
3. C[C@]1(C(=O)NC2CC2)c2ccccc2C(=O)N(Cc2ccccc2)[C@H]1c1ccc(CO)cc1
4. CCOC(=O)C1=C[C@@H](c2ccccc2)N(S(=O)(=O)c2ccc(C)cc2)[C@H]1c1ccccc1Cl
5. CN(C)c1ccc(C(O)C2C=CC3C(=O)N(c4ccccc4)C(=O)C3N2Nc2ccc([N+](=O)[O-])cc2)cc1 (stereo not drawn)
6. CCOC(=O)C[C@H]1[C@H](OC(=O)Cc2ccc3c(c2)OCO3)[C@@H](NC(=O)Cc2ccc(OC)cc2)c2cc(OCCCO)ccc2N1C(=O)c1ccc2ccccc2n1
7. CCCCO[C@H]1C[C@H]2C(I)=C[C@@H]1C(=O)[C@]21CO1
8. CC(=O)NCCCC[C@@H]1NC(=O)[C@@H]2C[C@H](C(=O)NCCCC[N+](C)(C)C)[C@H](c3ccc(O)cc3)N2C1=O

## Output
1.08
0.991
-1.59
1.06
1.13
0.32
0.0532
1.09

###

For each of the molecules below, state its composite z-score.
- Test system: Lefty1
- assayRemarks: Lefty1 binders on small-molecule microarrays, primary screen, biochemical, small-molecule microarray, 635/667 nm fluorescence (AID 1139)
- condition: small-molecule microarray binding, fluorescence 635/667; higher = more signal
Numbers only.

Would you please look over these solved cases?
C=CCC(OC(C)=O)[C@@H]1[C@@H](N(Cc2cccc3ccccc23)C(=O)Cc2ccc(OC)cc2)c2cc(OCCCO)ccc2N1C(=O)c1ccc2ccccc2n1 (stereo partly specified)    -0.0766
O=C1OCC=C[C@H]2OC34C=CCN(c5ccc(Cl)cc5)C(=O)[C@H]3N(CCO)C(=O)[C@@H]4[C@@H]12 (stereo partly specified)    -0.78
N#Cc1ccc(C(O)C2C=CC3C(=O)N(c4ccccc4)C(=O)C3N2Nc2ccccc2)cc1 (stereo unspecified)    -0.454
COC(=O)C(CC#Cc1ccc2c(c1)[C@]1(C(=O)N2)[C@H](C(=O)N2CCN(c3ncccn3)CC2)[C@H]2C(=O)O[C@H](c3ccccc3)[C@H](c3ccccc3)N2[C@@H]1c1ccc(OCCO)cc1)C(=O)OC    1.31
CCOC(=O)c1ccc(NC(=O)O[C@H]2[C@H](OC(=O)Nc3ccc4c(c3)OCO4)[C@@H](OC(=O)Nc3ccc4c(c3)OCO4)[C@@H](OC)O[C@@H]2CO)cc1    0.793

Batch request: composite z-score for each of the following molecules.
1. COCCOC(=O)N1C(=O)[C@@]2(c3ccccc31)[C@H](C(=O)N1CCN(c3ncccn3)CC1)[C@H]1C(=O)O[C@H](c3ccccc3)[C@H](c3ccccc3)N1[C@@H]2c1ccc(O)cc1
2. CC(C)[Si](C#C[Si](C(C)C)(C(C)C)C(C)C)(O[C@H](C)c1cn([C@H](CO)Cc2ccccc2)nn1)C(C)C
3. CC(C)C[C@@H]1NC(=O)[C@@H]2C[C@H](C(=O)NCCCCN(C)C)[C@H](c3cccc(OCCO)c3)N2C1=O
4. COc1ccc([Si](C)(C)[C@@H]2[C@@H](CCO)O[C@]3(C(=O)N(Cc4ccc(N5CCCCC5=O)cc4)c4ccccc43)[C@H]2C)cc1
5. CCCCCCc1nc(C2CC2)cc2c1[Si](C(C)C)(C(C)C)O[C@H]2c1ccccc1
6. C=CCC(OC(C)=O)[C@@H]1[C@@H](N(Cc2ccc(-c3cccc(C(F)(F)F)c3)o2)C(=O)c2ccc(-c3ccccc3)cc2)c2cc(OCCCO)ccc2N1C(=O)c1ccc2ccccc2n1 (stereo partly specified)

## Output
0.0567
0.412
0.24
0.572
1.05
0.149

###

For each of the compounds below, state its z-score.
- assayRemarks: E. coli growth modulation, two-sided OD650, primary screen, E. coli filamentation project, strain DRC41, 24 h (AID 1093);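 further: MC1000 strain lacking acrAB efflux and sulA so SOS filamentation is blocked; test concentration not given here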
- condition: OD650, 24 h, higher = more signal, called active from +8 up or from −8 down
One number for each entry.

Would you please look over these solved cases?
CCCCCCc1nc(C2CC2)cc2c1[Si](C(C)C)(C(C)C)O[C@H]2c1ccccc1    -1.28
CCOC(=O)C[C@H]1[C@H](OC(=O)c2cc3ccccc3oc2=O)[C@@H](NC(=O)c2ccc(-c3ccccc3)cc2)c2cc(OCCCO)ccc2N1C(=O)c1ccccc1    1.56
O=C1O[C@H](c2ccccc2)[C@H](c2ccccc2)N2[C@H]1[C@@H](C(=O)O)[C@]1(C(=O)Nc3ccc(C#CC4=CCCCC4)cc31)[C@H]2c1ccc(O)cc1    -0.911

Batch request: z-score for each of the following compounds.
1. O=C1O[C@@H](c2ccccc2)[C@@H](c2ccccc2)N2[C@@H](c3ccccc3OCCO)[C@]3(C(=O)Nc4ccc(C#CCCO)cc43)[C@@H](C(=O)N3CCCCCCC3)[C@H]12
2. COc1ccc(CCN2C(=O)[C@@]3(Cc4ccccc42)c2ccccc2C(=O)N(Cc2ccccc2OC)[C@H]3c2ccc(CO)cc2)cc1

## Output
[-0.798, 0.237]

Batch request: z-score for each of the following compounds.
1. CCCNC(=O)[C@@H]1c2ccccc2C(=O)N(C(C)C)[C@H]1c1ccc(CO)cc1
2. CCCC[C@@H]1C[C@H]1[C@@H](NC(=O)Cc1ccccc1)c1ccc(-c2ccccc2)cc1

## Output
1: 0.924; 2: -0.255

Batch request: z-score for each of the following compounds.
1. COc1ccc([Si](C)(C)[C@@H]2[C@@H](CC(=O)N(CCO)Cc3ccccc3)O[C@]3(C(=O)N(Cc4cccc(N5C(=O)c6cccc7cccc5c67)c4)c4ccccc43)[C@H]2C)cc1
2. COc1ccc([Si](C)(C)[C@@H]2[C@@H](CCO)O[C@]3(C(=O)N(Cc4ccc(N5CCCCC5=O)cc4)c4ccccc43)[C@H]2C)cc1
3. COCCOC(=O)N1C(=O)[C@@]2(c3cc(C#CCCO)ccc31)[C@H](c1ccccc1OCCO)N1[C@H](c3ccccc3)[C@H](c3ccccc3)OC(=O)[C@H]1[C@@H]2C(=O)Nc1nc2ccccc2s1

## Output
1: 2.11; 2: 1.2; 3: 0.0879

Batch request: z-score for each of the following compounds.
1. COC(=O)[C@@]1(Cc2ccc(OC)cc2)[C@H]2c3cc(C(=O)N(C)C)n(C[C@H](O)CO)c3C[C@H]2CN1C(=O)c1ccccc1
2. C=C(/C(=C/C[C@H](OC(C)=O)c1ccccc1OCCO)c1cc(C(=O)OC)ccc1OC)C(C)C

## Output
1. -1.02
2. 1.18

Batch request: z-score for each of the following compounds.
1. C=C(C(=O)CC[C@@H](OC(C)=O)c1ccc(CO)o1)C(C)C
2. COc1cc(OC)c(C(O)C2C=CC3C(=O)N(C)C(=O)C3N2NC(=O)OC(C)(C)C)cc1Br (configuration not stated)
3. CC(C)[Si](C#CCCCC#N)(O[C@H](c1ccccc1)c1cn([C@H](CO)Cc2ccccc2)nn1)C(C)C
4. CC(C)N1CC=CC23O[C@@H]4C=CCOC(=O)[C@@H]4[C@H]2C(=O)N(CCCO)[C@@H]3C1=O (some centres not stated)

## Output
1: 0.331; 2: -0.188; 3: 1.4; 4: 2.67

## Input Data request, read-out z-score, for "C=C(COC)C(=O)CC[C@@H](OC(=O)c1cccnc1)c1ccc(OCCO)cc1"
## Output -0.653
